Assay: Pharmacokinetics of metformin after oral administration in rats
Conditions: rat, plasma, po, 50 mg/kg, AUC24h, metformin 50 mg/kg PO, SA of RGE 1.5 g/kg
PARAMETER: AUC(0-t) (ng·h/mL)
Numbers only, in ng·h/mL.

Which AUC(0-t) reading was recorded for the molecule `CN(C)C(=N)N=C(N)N` ? 45200

* * *

Assay: Pharmacokinetics of metformin after intravenous injection in rats
Conditions: rat, plasma, iv, […], AUC24h, metformin […] IV, 1WRA of RGE 1.5 g/kg/day
PARAMETER: AUC(0-t) (ng·h/mL)
Numbers only, in ng·h/mL.

Consider the molecule shown here: `CN(C)C(=N)N=C(N)N` What is its recorded AUC(0-t)? 980

* * *

Target: MATE2-K (Homo sapiens)
Sequence (Q86VL8 1-566 isoform Q86VL8-3): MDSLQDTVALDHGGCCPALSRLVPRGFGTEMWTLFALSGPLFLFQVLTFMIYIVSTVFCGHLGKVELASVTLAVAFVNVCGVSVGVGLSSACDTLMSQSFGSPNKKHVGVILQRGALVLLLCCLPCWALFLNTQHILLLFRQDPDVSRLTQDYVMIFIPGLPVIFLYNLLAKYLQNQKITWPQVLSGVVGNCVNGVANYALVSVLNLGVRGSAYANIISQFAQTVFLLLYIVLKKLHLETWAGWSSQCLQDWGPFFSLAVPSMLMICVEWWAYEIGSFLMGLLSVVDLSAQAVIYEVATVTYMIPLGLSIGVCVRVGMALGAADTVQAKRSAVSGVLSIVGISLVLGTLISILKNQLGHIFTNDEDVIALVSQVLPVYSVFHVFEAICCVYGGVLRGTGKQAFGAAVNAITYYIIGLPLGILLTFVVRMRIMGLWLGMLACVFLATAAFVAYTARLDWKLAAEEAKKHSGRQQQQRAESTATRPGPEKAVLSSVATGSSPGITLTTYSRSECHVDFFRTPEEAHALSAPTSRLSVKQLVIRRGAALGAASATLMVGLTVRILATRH
Assay: Inhibition of MATE2-K-mediated [14C]metformin uptake in HEK293-MATE2-K cells
Type: cell-based
Set-up: host or cells: HEK293
Details: read-out: IC50 on MATE2-K-mediated metformin uptake, 10 µM [14C]metformin, 5 min
PARAMETER: IC50
Answer with the value and then the unit.

Quick check: IC50 of `CN/C(=N/CCSCc1nc[nH]c1C)NC#N` ? 5.03 µM

* * *

Assay: Pharmacokinetics of metformin after oral administration in rats
Conditions: rat, plasma, po, 50 mg/kg, MRT, metformin 50 mg/kg PO, Control
PARAMETER: MRT (h)
Give bare numbers, in h.

Tell me the measured MRT of `CN(C)C(=N)N=C(N)N` , please. 4.85

* * *

Experiment: Pharmacokinetics of metformin after intravenous injection in rats
Conditions: rat, plasma, iv, […], AUC∞, metformin […] IV, 1WRA of RGE 1.5 g/kg/day
PARAMETER: AUC(0-inf)
Number first, unit second.

Consider the compound shown here: CN(C)C(=N)N=C(N)N [metformin, Metformin] What is its recorded AUC(0-inf)? 986 ng·h/mL

* * *

Assay: Pharmacokinetics of metformin after oral administration in rats
Conditions: rat, plasma, po, 50 mg/kg, AUC∞, metformin 50 mg/kg PO, 1WRA of RGE 1.5 g/kg/day
PARAMETER: AUC(0-inf) (ng·h/mL)
Answers are plain numbers, in ng·h/mL.

Requested field: AUC(0-inf). Item: CN(C)C(=N)N=C(N)N [metformin, Metformin] 59000
